B1: library; numbered along this chain (parent)
chain: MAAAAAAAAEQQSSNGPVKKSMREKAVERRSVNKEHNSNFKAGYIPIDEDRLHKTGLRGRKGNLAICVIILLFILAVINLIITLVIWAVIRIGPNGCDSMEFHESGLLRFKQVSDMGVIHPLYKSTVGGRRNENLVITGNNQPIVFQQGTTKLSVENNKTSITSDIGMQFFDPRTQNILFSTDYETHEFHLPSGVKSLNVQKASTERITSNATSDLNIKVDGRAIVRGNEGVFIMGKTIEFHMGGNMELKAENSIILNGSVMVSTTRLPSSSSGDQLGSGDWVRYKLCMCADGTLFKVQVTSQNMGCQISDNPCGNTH

- Variants of: B1
- protocolSummary: SGCB cell-surface expression functional score (HA stain, bin4 vs bin1, normalised to synonymous) (log10 ratio); higher = more cell-surface SGCB (functional)
# label = yes (1) if SGCB cell-surface expression functional score (log10) >= -0.3 else no (0)

Example entries begin here.
[[record]]
mutantdesignation = "L64A"
qualitativelabel = "no (0)"

[[record]]
mutantdesignation = "Q201E"
qualitativelabel = "yes (1)"

[[record]]
mutantdesignation = "L84P"
qualitativelabel = "yes (1)"

[[record]]
mutantdesignation = "V27L"
qualitativelabel = "yes (1)"


Exam item: # check: SGCB cell-surface expression functional score (log10) of Y44I is greater than or equal to -0.3
Marked response: yes (1)

Exam item: Is reported SGCB cell-surface expression functional score (log10) greater than or equal to -0.3 here: V300T
Marked response: yes (1)

Exam item: I'd appreciate it if you could say whether Y285K has SGCB cell-surface expression functional score (log10) at least equal to -0.3.
Marked response: no (0)

Exam item: Dear colleague, could you confirm whether V18L has SGCB cell-surface expression functional score (log10) at or above -0.3?
Marked response: yes (1)

Exam item: Record A42N ; criterion: SGCB cell-surface expression functional score (log10) no lower than -0.3. Met?
Marked response: no (0)

Exam item: Please check the record K237L and state if its SGCB cell-surface expression functional score (log10) is at or above -0.3.
Marked response: yes (1)

Exam item: Is SGCB cell-surface expression functional score (log10) at least -0.3? Consider R267V
Marked response: yes (1)

Exam item: Answer whether SGCB cell-surface expression functional score (log10) of I225N is greater than or equal to -0.3.
Marked response: yes (1)

Exam item: Could you verify whether the entry K25M shows SGCB cell-surface expression functional score (log10) of no less than -0.3?
Marked response: yes (1)

Exam item: Decide: SGCB cell-surface expression functional score (log10) of L52D >= -0.3?
Marked response: yes (1)

Exam item: Assess whether reported SGCB cell-surface expression functional score (log10) for S99P sits at -0.3 or higher.
Marked response: no (0)

Exam item: Tell me whether SGCB cell-surface expression functional score (log10) is at least -0.3 here: V226A
Marked response: yes (1)

The reported measurements were obtained from the supplement of paper PMC10266784.
